- ASSAY_EXPLANATION: physchem
- STUDY_CONDITIONS: n-octanol/water
Where a name gives a salt, the structure may show the parent alone.
What logP was measured for each of the following?
Please state the value as a number alone, without comment.

In: Fill in: logP of CCOc1ccc2ccccc2c1 [2-ETHOXYNAPHTHALENE] is ___
Out: 3.82

In: For CC(C)(C)C1CCC(=O)CC1 [4-(2-methyl-2-propanyl)cyclohexanone] then?
Out: 2.77

In: For CCCCCCOC(C)=O [HEXYL ACETATE] then?
Out: 3.09

In: For C=CCOC(=O)CCCCC [ALLYL HEXANOATE] then?
Out: 3.62

In: For "C[C@@H]1CC[C@H]2[C@H](C)C(=O)O[C@@H]2C1" then?
Out: 2.11

In: For CCCCCCOC(=O)CCCCC [HEXYL HEXANOATE] then?
Out: 5.56

In: For CCCC(=O)OCC [ETHYL BUTANOATE] then?
Out: 2.03

In: For "CCC(=O)/C=C/C1=C(C)CCCC1(C)C" then?
Out: 4.47

In: For O=COCCc1ccccc1 [2-PHENYLETHYL FORMATE] then?
Out: 1.9

* * *

- ASSAY_EXPLANATION: Log P (n-octanol/water) of perfuming compounds
- STUDY_CONDITIONS: Table 6, perfuming compounds having a fruity note
What Log P (n-octanol/water) was measured for each of the following?

In: Fill in: Log P (n-octanol/water) of CCCCCCOC(=O)c1ccccc1O [HEXYL 2-HYDROXYBENZOATE] is ___
Out: 5.55

In: For CC/C=C\CCOC(=O)c1ccccc1 [(3Z)-3-hexen-1-yl benzoate] then?
Out: 4.21

In: For CC(=O)OC(C)CCC=C(C)CCC=C(C)C (stereo not shown) [1,5,9-TRIMETHYL-4,8-DECADIENYL ACETATE] then?
Out: 5.28

In: For C/C=C/C(=O)C1C(C)=CCCC1(C)C (racemic) then?
Out: 3.65

In: For CCCCC/C=C\C=C\C(=O)OCC [ethyl (2E,4Z)-2,4-decadienoate] then?
Out: 4.69

In: For CC(C)C(=O)OCCOc1ccccc1 [2-phenoxyethyl 2-methylpropanoate] then?
Out: 2.82

In: For CC1=C[C@H](C)[C@H]2[C@H](CCC(C)(C)[C@H]2O)C1 (racemic) then?
Out: 5.24

* * *

- ASSAY_EXPLANATION: Volatility of perfuming compounds in air
- Format: physicochemical
- STUDY_CONDITIONS: Table 6, perfuming compounds having a fruity note
What Volatility (μg/l air) was measured for each of the following?
Expressed in μg/l air, but write only the number.

In: Fill in: Volatility (μg/l air) of CC(C)CCOCCc1ccccc1 [3-METHYLBUTYL 2-PHENYLETHYL ETHER] is ___
Out: 110.11

In: For "COc1cc(C=O)ccc1OC(=O)C(C)C" then?
Out: 1.01

In: For CC(=O)OC/C=C/c1ccccc1 [(E)-3-PHENYL-2-PROPENYL ACETATE] then?
Out: 20.47

In: For COc1ccc(COC(C)=O)cc1 [4-METHOXYBENZYL ACETATE] then?
Out: 17.59

In: For CCCC(=O)OC(C)(C)Cc1ccccc1 [1,1-DIMETHYL-2-PHENYLETHYL BUTANOATE] then?
Out: 34.65

In: For CCCCC1CCC(=O)O1 (racemic) [(+−)-4-OCTANOLIDE] then?
Out: 108.41

In: For CCCCCC1CCC(=O)O1 (racemic) [(+−)-4-NONANOLIDE] then?
Out: 27.42

In: For COC(=O)/C=C/c1ccccc1 [METHYL (E)-3-PHENYL-2-PROPENOATE] then?
Out: 61.65

In: For CCc1occc(=O)c1O [2-ETHYL-3-HYDROXY-4(4H)-PYRANONE] then?
Out: 48.86

In: For CCCCCCCCC1CCC(=O)O1 (racemic) [(+−)-5-octyldihydro-2(3H)-furanone] then?
Out: 1.44

In: For CC(=O)OC/C=C(\C)CCC=C(C)C [(E)-3,7-DIMETHYL-2,6-OCTADIENYL ACETATE] then?
Out: 85.23

In: For CC/C=C\C[C@H]1C(=O)CC[C@@H]1CC(=O)OC (racemic) then?
Out: 1.59

In: For CCCCCCCC1CCCC(=O)O1 (racemic) [(+−)-6-heptyltetrahydro-2H-pyran-2-one] then?
Out: 0.90
